B1: TPR 5TU (parent)
chain: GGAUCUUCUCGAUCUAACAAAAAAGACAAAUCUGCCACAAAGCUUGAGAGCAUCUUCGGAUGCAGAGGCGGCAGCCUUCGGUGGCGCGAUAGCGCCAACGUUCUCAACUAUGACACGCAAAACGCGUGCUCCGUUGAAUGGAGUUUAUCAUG

variants of: B1; assay: polymerase ribozyme fitness, log enrichment relative to wild type (log ratio); higher = more active; in vitro selection for triplet polymerase activity
Variants at the floor of the assay were thinned out.
RECORDED_METRIC: polymerase ribozyme fitness (log ratio)
Please give the numeric answer without any surrounding text.

1. A19U G50A; -1.63
2. A22G C85U G133C; -1.48
3. A119G C125A; 0.204
4. U15C U61A A89G A98G; -1.62
5. C18A G58A G86U A119U; -2.06
6. U15C U53A A73G C76U G92C; -1.85

For this variant ( C8A A17C A24G A30G C35G G81C A89C G141C ), measured polymerase ribozyme fitness (log ratio) is -3.67

For this variant ( A22G C54U ), measured polymerase ribozyme fitness (log ratio) is 0.651

For this variant ( G70C A97G ), measured polymerase ribozyme fitness (log ratio) is -3.97
